Every entry's value here was drawn from patent US20250144067A1.

- System: NCI-H292 lung cancer cells
- protocol_details: FDA drug screening, complete media vs cholesterol-free media with simvastatin (TABLE 2)
- Format: cell-based, human
- measurement_context: complete media minus cholesterol-free media + simvastatin (0.04 μM); >0 enhanced anti-cancer activity, about 0 neutral, <0 antagonist
Where a name gives a salt, the structure may show the parent alone.
experimental_readout: Difference
Numbers only.

Examples with answers:
CC(C)(C)CC(=O)OCC(=O)[C@@]1(O)CC[C@H]2[C@@H]3CCC4=CC(=O)C=C[C@]4(C)[C@H]3[C@@H](O)C[C@@]21C [Prednisolone Tebutate] ... 0.01
CNC(=O)c1cc(Oc2ccc(NC(=O)Nc3ccc(Cl)c(C(F)(F)F)c3)c(F)c2)ccn1 [Regorafenib (Hydrochloride)] ... −0.04
COc1ccc(C(=O)N2CCN(c3ccc4c(c3)CCC(=O)N4)CC2)cc1OC ... −0.05
CCCCc1nc(C)c(CC(=S)N(C)C)c(=O)n1Cc1ccc(-c2ccccc2-c2nnn[nH]2)cc1 ... −0.05
N[C@@H](CSCC(=O)O)C(=O)O [Carbocisteine] ... 0.02

I have 6 molecules here; please give me Difference for each one.
1. CO[C@H]1C(=O)[C@]2(C)[C@@H](OC)C[C@H]3OC[C@@]3(OC(C)=O)[C@H]2[C@H](OC(=O)c2ccccc2)[C@]2(O)C[C@H](OC(=O)[C@H](O)[C@@H](NC(=O)OC(C)(C)C)c3ccccc3)C(C)=C1C2(C)C
2. Cc1nccn1CC1CCc2c(c3ccccc3n2C)C1=O (centres unmarked)
3. CC[C@]12CCCN3CCc4c(n(c5ccccc45)[C@@](O)(C(=O)OC)C1)[C@@H]32
4. CCC(=O)NS(=O)(=O)c1ccc(-c2c(-c3ccccc3)noc2C)cc1 [Parecoxib (Sodium)]
5. C=C[C@]1(C)C[C@@H](OC(=O)CS[C@@H]2C[C@H]3CC[C@@H](C2)N3C)[C@]2(C)[C@H](C)CC[C@]3(CCC(=O)[C@H]32)[C@@H](C)[C@@H]1O
6. CN(Cc1ccc(C(C)(C)C)cc1)Cc1cccc2ccccc12 [Butenafine (Hydrochloride)]

Output:
1. −0.06
2. −0.07
3. −0.05
4. −1.17
5. −0.03
6. −0.02

For each of the items listed, what is its Difference?
1. CC(=O)Nc1nnc(S(N)(=O)=O)s1 [Acetazolamide]
2. O=C(O)c1cc(/N=N/c2ccc(O)c(C(=O)O)c2)ccc1O [Olsalazine (Disodium)]
3. N#C[C@@H]1C[C@@H]2C[C@@H]2N1C(=O)[C@@H](N)C12CC3CC(CC(O)(C3)C1)C2
4. Cc1cccc([C@H](C)c2cnc[nH]2)c1C [Dexmedetomidine (hydrochloride)]
5. CC(C)(C)C(O)/C=C/c1ccc2c(c1)OCO2 (centres unmarked)
6. O=c1[nH]c(=O)n([C@H]2C[C@H](O)[C@@H](CO)O2)cc1C(F)(F)F

Output:
["−0.02", "−0.07", "−0.01", "−0.07", "−0.06", "−0.01"]
